test: chemical genetic growth profiling, strain panel (AID 1159580);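 note: tested at 20 µM; growth read once vehicle control cultures reached saturation at 30 °C; 1 = growth at the plate median or of vehicle wells; lower values mean less growth of the strain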
recorded conditions: S. cerevisiae deletion strains, growth OD, locus YNL322C, strain KRE1, active compounds read low
The whole screen tested about 5,500 compounds, of which about 2,000 (36%) were called active. Not shown: some 18% with an inconclusive outcome. The list shows a part of the results.
assay readout: normalized growth
// return just the number, without any unit appended

QUERY: Can you look up the measured normalized growth of `C/C(=N/O)c1sc2nc(C(F)(F)F)nn2c1C` for me?
RESULT: 0.962

QUERY: Can you look up the measured normalized growth of `O=C(O)/C=C/C(=O)O` for me?
RESULT: 1.02

QUERY: Can you look up the measured normalized growth of `O=C(O)c1cncc(C#Cc2ccccc2)c1` for me?
RESULT: 0.971

QUERY: Can you look up the measured normalized growth of `O=C(c1c(F)cccc1F)N1CCN(C(=O)c2c(F)cccc2F)CC1` for me?
RESULT: 0.99

QUERY: Can you look up the measured normalized growth of `CSc1nc2ccccc2[nH]1` for me?
RESULT: 0.977

QUERY: Can you look up the measured normalized growth of `N[C@H]1CONC1=O` for me?
RESULT: 1.01

QUERY: Can you look up the measured normalized growth of COC(=O)C[C@H]1C2(C)CC34OC5(C)O[C@@]6([C@H](OC)C(OC(=O)C(C)C)[C@]7(C)C(/C(=C(/OC)C(C)C)C(=O)O[C@H]7c7ccoc7)[C@@]6(O5)[C@H](OC)[C@@]3(OC)C2OC(C)=O)[C@]14C (some centres not stated) for me?
RESULT: 1.01

QUERY: Can you look up the measured normalized growth of COC(=O)CC1C2(C)CC34OC5(C)OC6(C7/C(=C(/O)C(C)C)C(=O)OC(c8ccoc8)C7(C)C(OC(=O)C(C)C)C(OC)C6(O5)C13C)C(OC)C4(OC)C2OC(C)=O (configuration not stated) for me?
RESULT: 1

QUERY: Can you look up the measured normalized growth of COc1c(N2CCNC(C)C2)c(F)cc2c(=O)c(C(=O)O)cn(C3CC3)c12 (configuration not stated) for me?
RESULT: 1.01

QUERY: Can you look up the measured normalized growth of `COC(=O)c1ccc2c(c1)N(C)S(=O)(=O)CC2=O` for me?
RESULT: 0.993

QUERY: Can you look up the measured normalized growth of COc1ccc(C(CN(C)C)C2(O)CCCCC2)cc1 (configuration not stated) for me?
RESULT: 1.01

QUERY: Can you look up the measured normalized growth of `COc1cc(CNC(=O)CCCC/C=C/C(C)C)ccc1O` for me?
RESULT: 1.01

QUERY: Can you look up the measured normalized growth of `C[n+]1c2cc(N)ccc2cc2ccc(N)cc21` for me?
RESULT: 0.836

QUERY: Can you look up the measured normalized growth of CC1COc2c(N3CCN(C)CC3)c(F)cc3c(=O)c(C(=O)O)cn1c23 (configuration not stated) for me?
RESULT: 0.995

QUERY: Can you look up the measured normalized growth of Cn1c(=O)c2c(ncn2CC(O)CO)n(C)c1=O (configuration not stated) for me?
RESULT: 0.998

QUERY: Can you look up the measured normalized growth of `Cc1onc(-c2c(Cl)cccc2Cl)c1-c1nc(-c2ccc3c(c2)OCCO3)cs1` for me?
RESULT: 1.02

QUERY: Can you look up the measured normalized growth of `O=c1cccc2ccc(O)c(O)c2c1O` for me?
RESULT: 0.105

QUERY: Can you look up the measured normalized growth of `COC(=O)/C=C/C(C)=C/C=C/C(C)=C/C=C/C=C(C)/C=C/C=C(C)/C=C/C(=O)O` for me?
RESULT: 1.01

QUERY: Can you look up the measured normalized growth of CC1CCc2cc(F)cc3c(=O)c(C(=O)O)cn1c23 (configuration not stated) for me?
RESULT: 0.986

QUERY: Can you look up the measured normalized growth of `C[C@H]1COc2c(N3CCN(C)CC3)c(F)cc3c(=O)c(C(=O)O)cn1c23` for me?
RESULT: 0.999

QUERY: Can you look up the measured normalized growth of `CNCC[C@@H](Oc1ccc(C(F)(F)F)cc1)c1ccccc1` for me?
RESULT: 0.963

QUERY: Can you look up the measured normalized growth of `CCC[C@H](N[C@@H](C)C(=O)N1[C@H](C(=O)O)C[C@@H]2CCCC[C@@H]21)C(=O)OCC` for me?
RESULT: 1.01

The values you see were collected from PubChem BioAssay AID1159580.
